Data provenance: patent EP4656642A1

Target: ERα (Homo sapiens)
Sequence (P03372 whole entry): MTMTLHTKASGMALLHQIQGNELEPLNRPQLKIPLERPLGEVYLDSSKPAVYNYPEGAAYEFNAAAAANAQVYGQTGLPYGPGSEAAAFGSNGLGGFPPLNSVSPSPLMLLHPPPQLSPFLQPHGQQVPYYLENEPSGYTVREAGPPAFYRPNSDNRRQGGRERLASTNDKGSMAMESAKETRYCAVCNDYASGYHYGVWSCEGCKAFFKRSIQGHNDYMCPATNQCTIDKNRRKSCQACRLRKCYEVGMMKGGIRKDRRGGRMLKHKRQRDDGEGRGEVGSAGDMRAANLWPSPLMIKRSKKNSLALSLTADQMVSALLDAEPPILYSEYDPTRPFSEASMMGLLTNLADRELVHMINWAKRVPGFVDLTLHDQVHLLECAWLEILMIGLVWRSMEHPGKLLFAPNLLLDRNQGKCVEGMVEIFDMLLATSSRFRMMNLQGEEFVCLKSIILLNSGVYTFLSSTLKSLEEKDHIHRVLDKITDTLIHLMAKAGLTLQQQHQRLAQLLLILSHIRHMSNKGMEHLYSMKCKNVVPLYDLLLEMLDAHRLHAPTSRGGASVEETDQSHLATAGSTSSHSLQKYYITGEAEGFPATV
Test: Degradation of ERα in MCF-7 cells (immunoblotting, 4 h)
Format: cell-based
Conditions: 10nM compound
Decision: Degradation rate (%) of ERα in MCF-7 cells beneath 40% gives Criterion met; Degradation rate (%) of ERα in MCF-7 cells meeting or exceeding 40% gives Criterion not met.

Here's an entry: O=C1CCC(N2Cc3cc4c(cc3C2=O)OC2(CC4)CN(C(=O)C3CC4(CCN(c5ccc([C@@H]6c7ccc(O)cc7CC[C@@H]6c6ccccc6)cc5)CC4)C3)C2)C(=O)N1 (some centres unmarked) . Is its Degradation rate (%) of ERα in MCF-7 cells below 40%?
Criterion met

Here's an entry: O=C1CCC(N2Cc3c(ccc4c3OCC43CCN(CCN4CCC5(CCN(c6ccc([C@@H]7c8ccc(O)cc8CC[C@@H]7c7ccccc7)cc6)CC5)C4)CC3)C2=O)C(=O)N1 (some centres unmarked) . Is its Degradation rate (%) of ERα in MCF-7 cells below 40%?
Criterion not met

Here's an entry: O=C1CCC(N2Cc3c(ccc4c3OCC43CCN(CC(=O)N4CCC(OC5CCN(c6ccc([C@@H]7c8ccc(O)cc8CC[C@@H]7c7ccccc7)cc6)CC5)CC4)CC3)C2=O)C(=O)N1 (some centres unmarked) . Is its Degradation rate (%) of ERα in MCF-7 cells below 40%?
Criterion not met

Here's an entry: O=C1CCC(N2C(=O)c3ccc4c(c3C2=O)OCC42CCN(C3CCC4(CC3)CN(c3ccc([C@@H]5c6ccc(O)cc6CC[C@@H]5c5ccccc5)cc3)C4)CC2)C(=O)N1 (some centres unmarked) . Is its Degradation rate (%) of ERα in MCF-7 cells below 40%?
Criterion met

Here's an entry: O=C1CCC(N2C(=O)c3cc4c(cc3C2=O)OC2(CC4)CCN(C3CCC4(CC3)CCN(c3ccc(C5c6ccc(O)cc6CCC5c5ccccc5)cc3)CC4)CC2)C(=O)N1 (centres unmarked) . Is its Degradation rate (%) of ERα in MCF-7 cells below 40%?
Criterion met
